experiment_summary: Vorinostat serum pharmacokinetics
Format: in vivo, human
conditions: human, oral, 200 mg, Mean Cmax (SD), Sequential schedule, 200 mg tid days 6–21 (n = 8), day 9 of cycle 1
readout_label: Cmax (ng/mL)
A number alone suffices; assume ng/mL.

Ask | Look up and state reported Cmax for O=C(CCCCCCC(=O)Nc1ccccc1)NO [vorinostat, suberoylanilide hydroxamic acid]
Reply | 263

----------
experiment_summary: Vorinostat serum pharmacokinetics
Format: in vivo, human
conditions: human, oral, 100 mg, Mean AUCt (SD), Concurrent schedule, 100 mg bid days 1–21, Day 15 (n = 1)
readout_label: AUC(0-t) (ng·h/mL)
Give the number; ng·h/mL is assumed, so skip it.

Ask | Find the measured AUC(0-t) of O=C(CCCCCCC(=O)Nc1ccccc1)NO [vorinostat, suberoylanilide hydroxamic acid] and report it.
Reply | 608
